- protocol.notes: Oral bioavailability in rat at 25 mg/kg
- Assay type: ADME, organism-based
- run.conditions: in vivo
parameter.measured: bioavailability (%)
Respond with the bare value in %.

Query block: Indicate its recorded bioavailability; the compound in question is `CC(C)=CCC[C@](C)(O)[C@H]1CC[C@]2(C)[C@@H]1[C@H](O)C[C@@H]1[C@@]3(C)CC[C@H](O)C(C)(C)[C@@H]3CC[C@]12C`
Result block: 31

* * *

- protocol.notes: Oral bioavailability in dog at 8 mg/kg
- Type: ADME, organism-based, Canis lupus familiaris
- run.conditions: in vivo
parameter.measured: bioavailability (%)
Respond with the bare value in %.

Query block: Indicate its recorded bioavailability; the compound in question is `CC(C)=CCC[C@](C)(O)[C@H]1CC[C@]2(C)[C@@H]1[C@H](O)C[C@@H]1[C@@]3(C)CC[C@H](O)C(C)(C)[C@@H]3CC[C@]12C`
Result block: 9.6
